biological target: Diacylglycerol lipase-beta (Homo sapiens, UniProt Q8NCG7); assay: In Vitro Inhibition of DAGL: Briefly, membrane proteome (1 mg/ml, 20 μL) was prepared from HEK293T cells (transiently transfected with hDAGLα-FLAG or hDAGLα-S472A-FLAG, hDAGLβ-FLAG or hDAGLβ-S443A-FLAG) as described in Example 16. The proteome was incubated at room temperature with vehicle (DMSO) or compound in 0.5 μL DMSO for 30 min. The membrane proteome sample was subsequently treated for 30 min with HT-01 probe (1 μM) or FP-Rh probe (1 μM). The reactions were quenched with 10 μL 3× Laemmli sample buffer (final concentrations: 60 mM Tris-Cl pH 6.8, 2% (w/v) SDS, 10% (v/v) glycerol, 5% (v/v) (3-mercaptoethanol, 0.01% (v/v) bromophenol blue). The samples were directly loaded and resolved on SDS page gel (10% acrylamide). The gels were scanned using a ChemiDoc MP system (Cy3 settings, 605/50 filter).The resolved proteins were transferred from the gels to a polyvinyldifluoride membrane for Western Blotting using a Trans-Blot® Turbo (BioRad). FLAG-tagged enzymes were stained using rabbit anti-FLAG as primary antibody, and goat-anti-rabbit HRP as secondary antibody. The blot was developed in the dark using a 10 mL luminal solution, 100 μL ECL enhancer and 3 μL H2O2. Chemiluminescence was visualized using a ChemiDoc XRS (BioRad).The percentage of DAGL activity remaining in the assayed samples was determined by measuring the integrated optical intensity of the fluorescent protein bands of the Western Blot using image lab 4.1. The relative intensity was compared to the vehicle (DMSO) treated proteins, which were set to 100%. IC50 values were determined by plotting a log(inhibitor) vs. normalized response (Variable slope) dose-response curve generated using Prism software (GraphPad).
Sequence (Q8NCG7 whole entry): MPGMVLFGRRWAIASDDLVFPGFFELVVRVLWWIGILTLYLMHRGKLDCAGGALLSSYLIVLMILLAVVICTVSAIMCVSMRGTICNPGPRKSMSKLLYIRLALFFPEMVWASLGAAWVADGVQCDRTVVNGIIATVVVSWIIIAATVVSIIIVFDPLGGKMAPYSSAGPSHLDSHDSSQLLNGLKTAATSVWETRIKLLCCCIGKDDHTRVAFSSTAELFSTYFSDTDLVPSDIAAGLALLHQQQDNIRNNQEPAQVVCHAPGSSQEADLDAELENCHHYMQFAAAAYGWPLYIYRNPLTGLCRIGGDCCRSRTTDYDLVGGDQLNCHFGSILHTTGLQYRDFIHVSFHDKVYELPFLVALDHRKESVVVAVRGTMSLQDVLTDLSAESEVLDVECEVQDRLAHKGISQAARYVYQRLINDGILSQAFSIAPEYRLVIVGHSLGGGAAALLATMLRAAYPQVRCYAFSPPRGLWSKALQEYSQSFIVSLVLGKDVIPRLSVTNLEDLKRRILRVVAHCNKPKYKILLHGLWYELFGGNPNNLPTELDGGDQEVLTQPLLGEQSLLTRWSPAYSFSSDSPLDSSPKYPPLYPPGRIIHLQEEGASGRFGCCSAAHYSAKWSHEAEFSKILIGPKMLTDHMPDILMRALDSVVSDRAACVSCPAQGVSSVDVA
pIC50: −log10 of the molar value.
Measured pIC50, listed per entry for reference.

| QUERY_SMILES | pIC50 |
| --- | --- |
| CCC(CC)CN(CCc1ccccc1)C(=O)n1ncc(-c2ccc(OC(F)(F)F)cc2)n1 | > 6.40 |
| CCC(CC)CN(CCc1ccccc1)C(=O)n1cc(-c2ccc(OC(F)(F)F)cc2)nn1 | > 6.40 |
